assay: solvent given as SMILES; conditions: in ClCCl
Quantity Name: absorption maximum
Give the number first and the unit second.

Molecule: CCn1c2ccccc2c2cc(-c3cc(-c4ccc5c(c4)c4ccccc4n5CC)nc(S(C)(=O)=O)n3)ccc21
Observed Result: 384 nm
//
Molecule: CC1=C2C=CC(C)=[N+]2[B-](F)(F)n2cccc21
Observed Result: 498 nm
//
Molecule: CCCCCCn1c2cc(C=C(C#N)C#N)sc2c2sc3c(sc4c5sc(C=C(C#N)C#N)cc5n(CCCCCC)c43)c21
Observed Result: 588 nm
//
Molecule: CCC1=C(C)C2=Cc3c4ccccc4c4n3[B-](c3ccncc3)(Oc3ccccc3-4)[N+]2=C1C (configuration not stated)
Observed Result: 627 nm
//
Molecule: CCOC(=O)c1c(-c2cc3ccc(OC)cc3oc2=O)nn(-c2cccc(C)c2)c1C(=O)OCC
Observed Result: 337 nm
//
Molecule: CC(C)[Si](C#Cc1cc2c3c(c1)c(=C(c1ccccc1)c1ccccc1)c1cc(C#C[Si](C(C)C)(C(C)C)C(C)C)cc4c1N3c1c(cc(C#C[Si](C(C)C)(C(C)C)C(C)C)cc1c4=C(c1ccccc1)c1ccccc1)c2=C(c1ccccc1)c1ccccc1)(C(C)C)C(C)C
Observed Result: 404 nm

Kindly consider the entry below.
Ask: I have this molecule here, `CCCCCCCCCCn1c(-c2cc(-c3nc4ccc(C)cc4n3CCCCCCCCCC)cc(-c3nc4ccc(C)cc4n3CCCCCCCCCC)c2)nc2ccc(C)cc21` , and I need its recorded absorption maximum.
Result: 307.5 nm

====

assay: solvent given as SMILES; details: in CO
Entries and their absorption maximum
Write the value in nm as a bare number.

Consider the reported absorption maximum for these molecules:
Molecule: O=C(O)c1cc2c(ccc3ccccc32)oc1=O
Units: nm
Observed Result: 364

Molecule: O=P1(c2ccccc2)C(c2cc(C(F)(F)F)cc(C(F)(F)F)c2)=Cc2c3ccc4cccc5ccc(c6cc(-c7ccc(N(c8ccccc8)c8ccccc8)cc7)n1c26)c3c45 (stereo not given)
Units: nm
Observed Result: 444

Molecule: COc1ccc2c(=O)c3c([nH]c2c1)-c1ccccc1NC3(C)C
Units: nm
Observed Result: 424

Molecule: CN1/C(=C/C=C(/C=C/c2sc3ccccc3[n+]2C)c2ccc(C(F)(F)F)cc2)Sc2ccccc21
Units: nm
Observed Result: 643

Ask: Would you mind telling me what absorption maximum value was observed for `Cn1cc(/C=C/C(=O)c2ccccc2)c2ccccc21` ?
Result: 391.71

====

Listed below: absorption maximum values for each entry.
assay: solvent given as SMILES; settings: in OCC(F)(F)F
Give the quantity in nm, number only.

Chemical Structure: COc1nnc(Cl)nn1
Quantity Name: absorption maximum
Units: nm
Observed Result: 518

Chemical Structure: CCC1=C(C)C2=Cc3c(I)c(I)c(I)n3[B-](F)(F)[N+]2=C1C
Quantity Name: absorption maximum
Units: nm
Observed Result: 523

Chemical Structure: CCC1=C(C)C2=Cc3cccn3[B-](F)(F)[N+]2=C1C
Quantity Name: absorption maximum
Units: nm
Observed Result: 494.5

Chemical Structure: CC1=C(C(C)(C)C)C(C)=[N+]2C1=C(C)c1c(C)c(C(C)(C)C)c(C)n1[B-]2(F)F
Quantity Name: absorption maximum
Units: nm
Observed Result: 521.6

Chemical Structure: CNC1=C2C=CC=[N+]2[B-](F)(F)n2cccc21
Quantity Name: absorption maximum
Units: nm
Observed Result: 393

Ask: I'd like to know its absorption maximum. The molecule in question is `Oc1ccccc1/C=N/N=C/c1ccccc1O`
Result: 350

Ask: // query: `COc1ccc2cc3c(C)cc(=O)oc3cc2c1`
Result: 344
